# measured on: PD-L1 (UniProt Q9NZQ7)
# Sequence (Q9NZQ7 19-238): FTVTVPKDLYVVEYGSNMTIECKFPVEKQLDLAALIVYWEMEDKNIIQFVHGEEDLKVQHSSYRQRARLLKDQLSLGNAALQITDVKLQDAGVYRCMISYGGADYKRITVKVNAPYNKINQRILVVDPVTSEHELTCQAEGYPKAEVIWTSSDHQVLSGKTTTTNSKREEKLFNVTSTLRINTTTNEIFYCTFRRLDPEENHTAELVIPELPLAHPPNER
# assay procedure: SPR
No end group written: not given here.
measure name: Kd (nM)
Entry rule: numbers only, all in nM.

Qu. Provide Kd value for the following binder: NTGYFYGDQ (also: co-assembled nanofiber with IR-CF3) [PSP (PSP@IR-CF3 nanofiber)]
Ans. 27.8

FYI, the data here is from paper PMC13696528.
